# Experiment: Mouse pharmacokinetic studies (plasma and brain)
# Format: in vivo
# Cond: male, C57BL/6, mouse, iv, 1 mg/kg, read-out: Mouse brain to plasma ratio
# Procedure: Male C57BL/6 mice were fasted overnight. Compounds A and B were dissolved in dimethyl acetamide at 10 times the final concentration, then Solutol HS 15 (BASF) was added to a final concentration of 10%. […] The plasma and brain homogenate were extracted with acetonitrile and the level of compound was analyzed by LC/MS/MS. The level of compound in plasma was calculated from a standard curve in rat plasma and the level in brain was calculated from a standard curve in brain homogenate. […]
The compounds listed here are annotated with their Kp.
Recorded Endpoint: Kp

>>> endpoint_result("O=C(NO)c1cnc(NC2(c3ccccc3)CC2)nc1")
1.23
>>> endpoint_result("O=C(NO)c1cnc(NC2(c3cccc(F)c3)CCCCC2)nc1")
1.28
